testedOn: T1, human CD79b recombinant protein (human, UniProt P40259 29-159)
T1 construct: also called human CD79b ECD antigen; recombinant human CD79b ECD
T1 sequence: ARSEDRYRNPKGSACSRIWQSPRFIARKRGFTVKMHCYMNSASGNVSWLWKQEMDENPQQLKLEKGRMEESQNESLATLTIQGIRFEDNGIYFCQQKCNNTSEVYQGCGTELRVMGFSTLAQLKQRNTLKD
assayExplanation: BLI; antibody at 10 ug/ml captured on anti-human IgG Fc probes, hCD79b in solution; same value printed in the rows for 18.3 and 9.14 nM hCD79b
readoutType: koff (s⁻¹)
Give just the number in s⁻¹; leave the unit off.

Recorded koff, per entry:
- binder: "ch29C3 (antibody, human IgG1, kappa, V domains shown, Rabbit/human chimeric IgG1 kappa; also called chimeric 29C3) VH: QSVKESGGGLFKPTDTLTLTCTVSGIDLNNYAMNWVRQAPGKGLDWIGLIGASGSTYYADWAKGRFTISKTSTTVDLKMTSLTTEDTATYFCAIGISATAHTSNIWGPGTLVAVSL VL: ALVMTQTPSSVSAAVGGTVTINCQASQNIDSNLAWYQQKPGQPPKLLIYDASALASGVPSRFKGSGSGTEYTLTISGVEPDDAATYYCQQDDSSSNVDNPFGGGTEVVVKR"
  readoutType: "koff"
  unit: "s⁻¹"
  assayValue: 0.000168
- binder: "ch48H10 (antibody, human IgG1, kappa, V domains shown, Rabbit/human chimeric IgG1 kappa; also called chimeric 48H10) VH: QSVKETGGGLVQPGGSLTLSCKASGFTINIDYWISWVRQAPGKGLEWIGIIDPGDGTTYFAIWVSGRFTISTDNAQNTVDLQMNSLTAADTATYFCAREFSASAYQYDLWGPGTLVTVSS VL: ALVMTQTPSSVSAAVGGTVSINCQASEDIESYLTWYQQKPGQPPKLLMYRASTLSSGVSSRFSASGSGTEFTLTISGVQPDDAATYYCQQGYRNKDVDNPFGGGTEVVVKR"
  readoutType: "koff"
  unit: "s⁻¹"
  assayValue: "1.09e-05"
- binder: "ch22D10 (antibody, human IgG1, kappa, V domains shown, Rabbit/human chimeric IgG1 kappa; also called chimeric 22D10) VH: QSVEESGGRLVTPGTPLTLTCTASGFTINDYHMNWVRQAPGKGLEWIGIISSNGDTYYASWAKGRFTISRTSTTVDLKMTSLTTEDTATYFCARDDRDRSYAFDPWGPGTLVTVSS VL: ALVMTQTPSSVSAAVGGTVTINCRASEDIERYLAWYQQKPGQRPKLLIYGASTLASGVPSRFKGSGSGTEYTLTISGVQPDDAATYYCHQGDSSRNVVNVFGGGTEVVVKR"
  readoutType: "koff"
  unit: "s⁻¹"
  assayValue: 0.000106

Kindly review the next binder as well.
Dear colleague, I am looking for the recorded koff of the following binder: ch57B9 (antibody, human IgG1, kappa, V domains shown, Rabbit/human chimeric IgG1 kappa; also called chimeric 57B9) VH: QSVRETGGGLVQPGGSLTLSCEASEFTINIDYWISWVRQAPGKGLEWIGIIDPGDGTTYFAIWVSGRFTITRNTNLNTVDLKMTSLTEADTATYFCAREVSASAYQYDLWGPGTLVTVSS VL: ALVMTQTPSSVSADVGGTVSINCQASEDIESYLAWYQQKPGQPPKLLIYFTSNLASGVPSRFKGSGSGTEYTLTISGVQPDDAATYYCQQGYRNSDVHNPFGGGTEVVVKR 8.8e-05

// data source = patent US20260209346A1
